- STUDY_TARGET: Full length LIGHT S194A on HEK293FF cells (Homo sapiens (Human), UniProt O43557 1-240)
- Sequence (O43557 whole entry S194A): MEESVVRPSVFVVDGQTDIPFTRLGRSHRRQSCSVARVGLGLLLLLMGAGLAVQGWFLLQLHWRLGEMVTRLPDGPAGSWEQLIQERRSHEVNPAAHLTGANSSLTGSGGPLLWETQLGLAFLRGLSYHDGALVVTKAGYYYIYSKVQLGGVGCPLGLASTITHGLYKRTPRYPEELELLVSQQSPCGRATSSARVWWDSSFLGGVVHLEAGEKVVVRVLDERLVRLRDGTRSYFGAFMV
- PROTOCOL: flow cytometry, HEK293FF, mAb at EC50
MEASURED_ATTRIBUTE: % of WT binding (%)
Enter your answer as a number in %; do not include the unit.

Ask: Would you mind telling me what % of WT binding value was observed for 3A07 chimeric IgG4 mAb (antibody, V domains shown, Chimeric human IgG4 (S-to-P, L-to-E) with human CL, as m1; also called Parental 3A07) VH: QVQLQQSGAELVRPGAPVTLSCKASDYTFTDSEIHWVKQTPVHGLEWIGEIDPETGGTAYNQKFKGKATLTADKSSSTAYMELRSLTSEDSAVYYCSRETDYFFDYWGQGTTLTVSS VL: ENVLTQSPAIMSASPGEKVTMTCSASSSVSYMYWYQQRPGSSPRLLIYDTSNLASGVPVRFSGSGSGTSYSLTISRMEAEDAATYYCQQWSSYPLTFGSGTKLEIK ?
Result: 1
